Attribution: patent US12344663

molecular target: human complement C3 (human, UniProt P01024 23-1663); assay: cell-based or functional assay
Sequence (P01024 23-1663 limits assumed): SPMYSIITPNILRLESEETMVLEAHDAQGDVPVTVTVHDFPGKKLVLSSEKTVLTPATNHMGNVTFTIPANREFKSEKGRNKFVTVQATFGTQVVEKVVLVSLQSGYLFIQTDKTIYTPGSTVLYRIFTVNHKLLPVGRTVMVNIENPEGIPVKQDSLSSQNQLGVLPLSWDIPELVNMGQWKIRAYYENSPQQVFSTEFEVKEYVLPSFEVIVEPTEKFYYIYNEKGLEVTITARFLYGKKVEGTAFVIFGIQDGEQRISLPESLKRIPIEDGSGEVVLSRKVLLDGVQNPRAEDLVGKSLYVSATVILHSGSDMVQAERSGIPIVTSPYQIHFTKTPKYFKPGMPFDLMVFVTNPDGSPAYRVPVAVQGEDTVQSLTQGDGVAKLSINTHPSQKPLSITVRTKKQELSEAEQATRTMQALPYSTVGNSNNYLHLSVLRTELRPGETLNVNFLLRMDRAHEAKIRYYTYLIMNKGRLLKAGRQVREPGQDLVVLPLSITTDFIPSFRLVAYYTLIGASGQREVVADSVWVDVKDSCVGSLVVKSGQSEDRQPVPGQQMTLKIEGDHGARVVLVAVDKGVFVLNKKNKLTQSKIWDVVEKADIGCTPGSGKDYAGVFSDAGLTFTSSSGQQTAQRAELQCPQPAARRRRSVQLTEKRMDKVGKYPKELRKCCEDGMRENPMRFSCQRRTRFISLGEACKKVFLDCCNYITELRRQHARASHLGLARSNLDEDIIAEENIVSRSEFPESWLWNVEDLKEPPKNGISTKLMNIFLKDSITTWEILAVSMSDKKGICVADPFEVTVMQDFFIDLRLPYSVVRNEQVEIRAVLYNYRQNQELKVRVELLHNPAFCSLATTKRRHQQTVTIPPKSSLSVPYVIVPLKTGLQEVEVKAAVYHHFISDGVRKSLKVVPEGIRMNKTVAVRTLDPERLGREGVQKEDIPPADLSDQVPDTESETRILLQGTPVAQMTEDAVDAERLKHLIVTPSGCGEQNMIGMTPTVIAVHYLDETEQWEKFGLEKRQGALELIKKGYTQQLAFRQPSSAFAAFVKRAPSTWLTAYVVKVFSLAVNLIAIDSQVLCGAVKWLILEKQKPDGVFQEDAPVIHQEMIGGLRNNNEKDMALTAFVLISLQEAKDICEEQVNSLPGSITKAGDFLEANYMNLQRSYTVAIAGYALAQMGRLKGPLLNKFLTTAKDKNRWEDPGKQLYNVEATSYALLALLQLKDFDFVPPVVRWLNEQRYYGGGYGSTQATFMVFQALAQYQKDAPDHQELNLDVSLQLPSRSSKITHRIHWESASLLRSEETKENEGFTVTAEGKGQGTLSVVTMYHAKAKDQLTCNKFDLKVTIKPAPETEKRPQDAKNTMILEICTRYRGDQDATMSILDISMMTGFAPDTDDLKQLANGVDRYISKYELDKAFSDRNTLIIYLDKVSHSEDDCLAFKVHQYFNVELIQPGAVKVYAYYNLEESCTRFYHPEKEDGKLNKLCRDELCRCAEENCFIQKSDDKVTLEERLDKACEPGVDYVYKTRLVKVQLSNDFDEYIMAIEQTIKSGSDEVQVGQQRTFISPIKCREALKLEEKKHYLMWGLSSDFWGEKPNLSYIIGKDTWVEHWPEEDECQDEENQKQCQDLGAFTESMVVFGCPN
Documented IC50 (nM), Lectin Pathway, MAC deposition (WEISLAB, human serum) across a set of binders
attributeMeasured: IC50 (nM), Lectin Pathway, MAC deposition (WEISLAB, human serum)

binder: Clone II (scFv, also called scFv of the invention) scFv: MQLVLTQSPSASASLGASVKLTCTLSSAHKTYTIDWYQQQPEKCPRYLMQLKSDGSYTKGSGIPDRFSGSSSGAERYLTISSLQSEDEADYYCGTEGVGGYVFGGGTKLTVLGGGGGSGGGGSGGGGSGGGGSQVQLVESGGGSVQPGRSLRLSCAASGFTFSNYAMNWVRQAPGKGLEWVAIINVGGGTNYADSVKGRFTISRDNSKNTLYLQMNSLRAEDTASYYCARAVGYHHARLDPWGCGTSVTVSS
measuredValue: 71

binder: Clone III (scFv, also called scFv of the invention) scFv: MQLVLTQSPSASASLGASVKLTCTLSSAHKTYTIDWYQQQPEKCPRYLMQLKSEGSYTKGSGIPDRFSGSSSGAERYLTISSLQSEDEADYYCGTEGVGGYVFGGGTKLTVLGGGGGSGGGGSGGGGSGGGGSQVQLVESGGGSVQPGRSLRLSCAASGFTFSNYAMNWVRQAPGKGLEWVAIINVGGGTNYADSVKGRFTISRDNSKNTLYLQMNSLRAEDTASYYCARAVGYHHARLDPWGCGTSVTVSS
measuredValue: 64

binder: Clone I (scFv, also called exemplary antibody of the invention (Clone I); scFv of the invention) scFv: MQLVLTQSPSASASLGASVKLTCTLSSAHKTYTIDWYQQQPEKCPRYLMQLKSDGSYTKGSGIPDRFSGSSSGAERYLTISSLQSEDEADYYCGTEGVGGYVFGGGTKLTVLGGGGGSGGGGSGGGGSGGGGSQVQLVESGGGSVQPGRSLRLSCAASGFTFSNYAMNWVRQAPGKGLEWVAVISYDGSNKYYADSVKGRFTISRDNSKNTLYLQMNSLRAEDTASYYCARAVGYHHARLDPWGCGTSVTVSS
measuredValue: 67

binder: Comparative Compound A3 (antibody, human IgG1, kappa, V domains shown) VH: QVQLVQSGAEVKKPGASVKVSCKASGYTFTDFYMDWVRQAPGQRLEWMGYIYPHNGGTTYNQQFTGRVTITVDKSASTAYMELSSLRSEDTAVYYCARRGGFDFDYWGQGTLVTVSS VL: DIQMTQSPSSLSASVGDRVTITCKASENVDTYVSWYQQKPGKAPKLLIYGASNRYTGVPSRFSGSGSGTDFTFTISSLQPEDIATYHCGQSHSYPLTFGQGTKLEIKR
measuredValue: 58
